Target: COVID-19 (nCoV-2019, SARS-CoV2) Mpro (Severe acute respiratory syndrome coronavirus 2)
Test: COVID-19 (nCoV-2019, SARS-CoV2) Mpro enzymatic assay
Assay type: biochemical
Details: 25 nM Mpro, 25 μM substrate; read-out: COVID-19 Mpro IC50
pIC50: −log10 of the molar value.
Entries and their measured pIC50 follow.

{"columns": ["molecule", "pIC50"],
 "data": [
  ["CO[C@@H]1C[C@H](C(=O)N(c2ccc(C(C)(C)C)cc2)C(C)(C(=O)NC2CCCCC2)c2cccnc2)N(C#N)C1 (single isomer, unassigned) [1230 Isomer 2]", "> 5.70"]
]}

q: Query (molecule): CC(C)(C)c1ccc(N(C(=O)[C@H]2C[C@H](Oc3ccccc3)CN2C#N)C(C(=O)NC2CCCCC2)c2cccnc2)cc1 (single isomer, unassigned) [Compound 308 Isomer 2] ; field requested: pIC50
a: > 5.70

q: Consider the molecule N#CN1C[C@H](O)C[C@@H]1C(=O)N(c1ccc2c(c1)NCCC2)C(C(=O)NC1CCCCC1)c1cccnc1 (single isomer, unassigned) [Compound 755 Isomer 2] and give its measured pIC50.
a: 4.52 to 5.00

q: Can you look up the measured pIC50 of CC(C)(C)OC(=O)NC1CCN(C(=O)C(c2cccnc2)N(C(=O)[C@H]2CCCN2C#N)c2ccc(C(C)(C)C)cc2)CC1 (some centres unmarked) [Compound 966b] for me?
a: 4.52 to 5.00

q: // pIC50 lookup, key: CC1(O)C[C@H](C(=O)N(c2ccc(C(C)(C)C)cc2)C(C(=O)NC2CCCCC2)c2cccnc2)N(C#N)C1 (single isomer, unassigned) [Compound 284 Isomer 1]
a: 5.00 to 5.70

q: Fill in the blank: the reported pIC50 of CO[C@@H]1C[C@H](C(=O)N(c2ccc(S(F)(F)(F)(F)F)cc2)C(C)(C(=O)NC2CCC(F)(F)CC2)c2cccnc2)N(C#N)C1 (single isomer, unassigned) [1259 Isomer 1] is ____.
a: 5.00 to 5.70
